# System: Mus musculus
# protocol details: Neurotoxicity in ip dosed albino CF1 mouse assessed as minimum dose required to cause toxicity after 4 hrs by rotarod test
# Assay type: organism-based
# measurement conditions: in vivo
A collection of compounds and their measured MED
quantity name: MED

{"columns": ["smiles representation", "quantity name", "reported result"],
 "data": [
  ["Clc1ccc(-c2nc(-c3ccccc3)c[nH]2)cc1", "MED", "> 300 mg/kg"],
  ["c1ccc(-c2c[nH]c(-c3cccnc3)n2)cc1", "MED", "100 mg/kg"],
  ["Clc1cccc(-c2nc(-c3ccccc3)c[nH]2)c1", "MED", "> 300 mg/kg"],
  ["FC(F)(F)c1cccc(-c2c[nH]c(-c3ccc(Cl)cc3)n2)c1", "MED", "> 300 mg/kg"],
  ["COc1ccc(-c2c[nH]c(-c3ccccc3)n2)cc1", "MED", "100 mg/kg"],
  ["FC(F)(F)c1ccc(-c2c[nH]c(-c3ccccc3)n2)cc1", "MED", "100 mg/kg"],
  ["COc1cccc(-c2c[nH]c(-c3ccccc3)n2)c1", "MED", "> 300 mg/kg"],
  ["O=[N+]([O-])c1ccc(-c2nc(-c3cccc(C(F)(F)F)c3)c[nH]2)cc1", "MED", "> 300 mg/kg"],
  ["FC(F)(F)c1cccc(-c2nc(-c3ccccc3)c[nH]2)c1", "MED", "> 300 mg/kg"],
  ["O=[N+]([O-])c1ccc(-c2nc(-c3ccccc3)c[nH]2)cc1", "MED", "> 300 mg/kg"],
  ["O=[N+]([O-])c1ccc(-c2c[nH]c(-c3ccccc3)n2)cc1", "MED", "> 300 mg/kg"]
]}

----------
# Tested on: Mus musculus
# protocol details: Anticonvulsant activity in albino CF1 mouse assessed as protection against maximal electroshock-induced seizures at 100 mg/kg, ip after 0.5 hrs
# Format: functional, organism-based
# Parameters: dose 100 mg/kg
The source made the active and inactive calls. The rule behind the calls is not given here.

{"columns": ["smiles representation", "Activity"],
 "data": [
  ["COc1cccc(-c2nc(-c3ccccc3)c[nH]2)c1", "Active"],
  ["FC(F)(F)c1ccc(-c2nc(-c3ccccc3)c[nH]2)cc1", "inactive"],
  ["Clc1ccc(-c2nc(-c3ccccc3)c[nH]2)cc1", "inactive"],
  ["c1ccc(-c2c[nH]c(-c3cc4ccccc4o3)n2)cc1", "inactive"],
  ["COc1ccc(-c2c[nH]c(-c3ccccc3)n2)cc1", "Active"],
  ["COc1ccc(-c2nc(-c3ccccc3)c[nH]2)cc1", "Active"],
  ["O=[N+]([O-])c1ccc(-c2nc(-c3cccc(C(F)(F)F)c3)c[nH]2)cc1", "inactive"],
  ["c1ccc(-c2c[nH]c(C3CCCCC3)n2)cc1", "inactive"],
  ["c1ccc(-c2c[nH]c(-c3ccccc3)n2)cc1", "Active"],
  ["FC(F)(F)c1cccc(-c2c[nH]c(-c3cccc(C(F)(F)F)c3)n2)c1", "inactive"],
  ["Clc1ccc(-c2c[nH]c(-c3ccccc3)n2)cc1", "Active"],
  ["FC(F)(F)c1cccc(-c2nc(-c3ccccc3)c[nH]2)c1", "inactive"]
]}

----------
# System: Mus musculus
# protocol details: Anticonvulsant activity in albino CF1 mouse assessed as protection against maximal electroshock-induced seizures at 100 mg/kg, ip after 0.5 hrs
# Assay type: functional, organism-based
# Design: dose 100 mg/kg
Activity calls are given as the source filed them. The rule behind the calls is not given here.
Possible outcomes: active, inactive

{"columns": ["smiles representation", "class name"],
 "data": [
  ["FC(F)(F)c1cccc(-c2c[nH]c(-c3ccc(Cl)cc3)n2)c1", "inactive"],
  ["Clc1cccc(-c2c[nH]c(-c3ccccc3)n2)c1", "active"],
  ["c1ccc(-c2c[nH]c(-c3cccnc3)n2)cc1", "active"],
  ["COc1cccc(-c2c[nH]c(-c3ccccc3)n2)c1", "active"],
  ["c1ccc(-c2c[nH]c(-c3ccsc3)n2)cc1", "active"]
]}
